Entries and their EC50
Target: human CYP11B1 (Homo sapiens, UniProt P15538)
Sequence (P15538 25-503): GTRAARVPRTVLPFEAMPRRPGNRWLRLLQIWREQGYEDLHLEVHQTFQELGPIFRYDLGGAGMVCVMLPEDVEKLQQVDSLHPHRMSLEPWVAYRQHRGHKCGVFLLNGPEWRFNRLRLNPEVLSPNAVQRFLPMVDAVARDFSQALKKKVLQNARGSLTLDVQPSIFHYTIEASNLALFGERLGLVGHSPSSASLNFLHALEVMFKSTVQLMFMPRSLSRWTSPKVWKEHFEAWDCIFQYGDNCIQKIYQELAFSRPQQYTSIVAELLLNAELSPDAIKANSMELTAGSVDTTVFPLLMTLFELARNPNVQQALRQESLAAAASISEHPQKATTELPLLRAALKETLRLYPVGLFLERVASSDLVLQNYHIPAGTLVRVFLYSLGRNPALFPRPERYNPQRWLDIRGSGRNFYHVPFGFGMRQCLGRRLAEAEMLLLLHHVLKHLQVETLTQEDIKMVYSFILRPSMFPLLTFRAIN
Test: G-402 cellular enzyme assay, human CYP11B1 (cortisol release, HTRF)
Conditions: G-402 cells expressing human CYP11B1; 1 μM Deoxycortisol
From the text: Herein we identified the use of the G-402 cell line as a host cell to ectopically express (transiently or stably) enzymes of the CYP11 family. […] Importantly the identified cell line G-402 expresses co-factors (adrenodoxin and adrenodoxin reductase) important for the activity of the CYP11 family and no relevant enzyme activity of the CYP11 family (in comparison to H295R cells) was detected in these cells. […]
Please give a number only; it is taken to be in nM.

Below: 6 molecules and their reported EC50.
molecule	measurement.type	measurement.unit	reported
CN1C(=O)CCc2cc(-c3cncc(CNC(=O)c4ccnnc4)c3)ccc21 [Example 89]	EC50	nM	276
O=C(NCc1cncc(-c2cc3c4c(c2)CCN4C(=O)CC3)c1)c1ncccc1Cl [Example 236]	EC50	nM	77
CCC1(NCc2cncc(-c3ccc4c(c3)CCC(=O)N4C)c2)COC1 [Example 206]	EC50	nM	237
CN1C(=O)CCc2cc(-c3cncc(N4CCC[C@@H]4CO)c3)ccc21 [Example 6]	EC50	nM	3340
CN1C(=O)CCc2cc(-c3cncc(C4(N(C)C(=O)c5ncccc5Cl)CC4)c3)ccc21 [Example 201]	EC50	nM	436
CN1C(=O)CCc2cc(-c3cncc(CNC(=O)c4ccccn4)c3)ccc21 [Example 97]	EC50	nM	111

In the following, a different molecule is considered.
# input molecule: Cc1noc(C)c1C(=O)NCc1cncc(-c2ccc3c(c2)CCC(=O)N3C)c1 [Example 75] ; wanted: its EC50
509
